Below, each of the binders is paired with its reported BMPRII binding (relative to wild type = 1.0) value.
- assay_system: T1, BMPRII receptor-Fc fusion (UniProt Q13873 27-151, limits assumed)
- T1 construct: BMP receptor-Fc fusion used at 5 ug/mL
- T1 sequence (looked up): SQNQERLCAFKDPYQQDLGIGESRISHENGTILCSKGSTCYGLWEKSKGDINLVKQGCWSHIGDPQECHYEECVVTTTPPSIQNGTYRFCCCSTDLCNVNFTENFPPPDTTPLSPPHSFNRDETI
- assay: ELISA-like plate assay, captured BMP-7 from conditioned media, receptor-Fc detection

Previously resolved entries follow.
{"columns": ["binder", "val"],
 "data": [
  ["BMP-7 variant N76S (ligand, In conditioned media; numbering on mature BMP-7) STGGKQRSQNRSKTPKNQEALRMASVAENSSSDQRQACKKHELYVSFRDLGWQDWIIAPEGYAAYYCEGECAFPLSSYMNATNHAIVQTLVHFINPETVPKPCCAPTQLNAISVLYFDDSSNVILKKYRNMVVRACGCH", "0.98 relative to wild type"],
  ["BMP-7 variant Y78H (ligand, In conditioned media; numbering on mature BMP-7) STGGKQRSQNRSKTPKNQEALRMASVAENSSSDQRQACKKHELYVSFRDLGWQDWIIAPEGYAAYYCEGECAFPLNSHMNATNHAIVQTLVHFINPETVPKPCCAPTQLNAISVLYFDDSSNVILKKYRNMVVRACGCH", "1.47 relative to wild type"],
  ["BMP-7 variant K39N (ligand, In conditioned media; numbering on mature BMP-7) STGGKQRSQNRSKTPKNQEALRMASVAENSSSDQRQACNKHELYVSFRDLGWQDWIIAPEGYAAYYCEGECAFPLNSYMNATNHAIVQTLVHFINPETVPKPCCAPTQLNAISVLYFDDSSNVILKKYRNMVVRACGCH", "0.99 relative to wild type"],
  ["BMP-7 variant K126Q (ligand, In conditioned media; numbering on mature BMP-7) STGGKQRSQNRSKTPKNQEALRMASVAENSSSDQRQACKKHELYVSFRDLGWQDWIIAPEGYAAYYCEGECAFPLNSYMNATNHAIVQTLVHFINPETVPKPCCAPTQLNAISVLYFDDSSNVILQKYRNMVVRACGCH", "0.28 relative to wild type"],
  ["BMP-7 variant F73K (ligand, In conditioned media; numbering on mature BMP-7) STGGKQRSQNRSKTPKNQEALRMASVAENSSSDQRQACKKHELYVSFRDLGWQDWIIAPEGYAAYYCEGECAKPLNSYMNATNHAIVQTLVHFINPETVPKPCCAPTQLNAISVLYFDDSSNVILKKYRNMVVRACGCH", "0.38 relative to wild type"]
]}

Recall and state the measured BMPRII binding (relative to wild type = 1.0) for BMP-7 variant N76Y (ligand, In conditioned media; numbering on mature BMP-7) STGGKQRSQNRSKTPKNQEALRMASVAENSSSDQRQACKKHELYVSFRDLGWQDWIIAPEGYAAYYCEGECAFPLYSYMNATNHAIVQTLVHFINPETVPKPCCAPTQLNAISVLYFDDSSNVILKKYRNMVVRACGCH .
0.6 relative to wild type

Recall and state the measured BMPRII binding (relative to wild type = 1.0) for BMP-7 variant S77E (ligand, In conditioned media; numbering on mature BMP-7) STGGKQRSQNRSKTPKNQEALRMASVAENSSSDQRQACKKHELYVSFRDLGWQDWIIAPEGYAAYYCEGECAFPLNEYMNATNHAIVQTLVHFINPETVPKPCCAPTQLNAISVLYFDDSSNVILKKYRNMVVRACGCH .
0.98 relative to wild type

Recall and state the measured BMPRII binding (relative to wild type = 1.0) for BMP-7 variant F93E (ligand, In conditioned media; numbering on mature BMP-7) STGGKQRSQNRSKTPKNQEALRMASVAENSSSDQRQACKKHELYVSFRDLGWQDWIIAPEGYAAYYCEGECAFPLNSYMNATNHAIVQTLVHEINPETVPKPCCAPTQLNAISVLYFDDSSNVILKKYRNMVVRACGCH .
0.62 relative to wild type

Recall and state the measured BMPRII binding (relative to wild type = 1.0) for BMP-7 variant Y78T (ligand, In conditioned media; numbering on mature BMP-7) STGGKQRSQNRSKTPKNQEALRMASVAENSSSDQRQACKKHELYVSFRDLGWQDWIIAPEGYAAYYCEGECAFPLNSTMNATNHAIVQTLVHFINPETVPKPCCAPTQLNAISVLYFDDSSNVILKKYRNMVVRACGCH .
2.66 relative to wild type
